Target: T1, human CD81 on CD81-expressing cells (Jurkat E6.1, human PBMC, Ramos) (human, UniProt P60033 1-236)
T1 sequence: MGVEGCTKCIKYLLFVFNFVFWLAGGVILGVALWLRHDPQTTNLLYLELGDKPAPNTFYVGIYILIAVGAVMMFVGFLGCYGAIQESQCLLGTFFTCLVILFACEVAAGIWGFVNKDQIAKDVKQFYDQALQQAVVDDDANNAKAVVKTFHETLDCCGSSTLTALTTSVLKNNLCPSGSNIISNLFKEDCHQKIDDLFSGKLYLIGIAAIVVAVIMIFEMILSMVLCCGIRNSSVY
Experiment: cell-based or functional assay
experimental readout: Jurkat chemotaxis (% of control IgG4) at 0.001 µg/mL (%)
The answer is to be given in %; state only the numeric part.

Q: Assign Jurkat chemotaxis (% of control IgG4) at 0.001 µg/mL to the following record: 001-B06 (antibody, human IgG4 S228P, lambda, V domains shown, IgG4 S228P) VH: EVQLLESGGGLVQPGGSLRLSCAASGFTFSSNYMSWVRQAPGKGLEWVSYISSSSTYTDYADSVKGRFTISRDNSKNTLYLQMNSLRAEDTAVYYCARYSYGRDTFDYWGQGTLVTVSS VL: QSVLTQPFSASGTPGQRVTISCTGSTSNIGAGYDTHWYQQLPGTAPKLLIYGNSNRPSGVPDRFSGSKSGTSASLAISGLRPEDEADYYCQSYDTSLSVWVFGGGTKLTVLG
Ans: 102

Q: Look up Jurkat chemotaxis (% of control IgG4) at 0.001 µg/mL of 002-H02 (antibody, human IgG4 S228P, lambda, V domains shown, IgG4 S228P) VH: EVQLLESGGGLVQPGGSLRLSCAASGFTFSSNYMSWVRQAPGKGLEWVSYISSSSTYTDYADSVKGRFTISRDNSKNTLYLQMNSLRAEDTAVYYCARYSYGRDSFDYWGQGTLVTVSS VL: QSVLTQPSSASGTPGQRVTISCTGSTSNIGAGYGTHWYQQLPGTAPKLLIYGNSNRPSGVPDRFSGSKSGTSASLAISGLRSEDEADYYCQSYDTNLSVWVFGGGTKLTVLG and report it.
Ans: 87
